Hey, just so you know, these numbers are from PubChem BioAssay (EPA / NIEHS).

Target: human Elastase, ELANE (gene 1991)
Assay: NVS_ENZ_hElastase: NovaScreen (NVS) Enzymatic Assay for human Elastase (AID 2283153)
Inconclusive results are not listed. Active and inactive are the calls of the source. How the source made its calls: active means hit-call score of the fitted dose curve at least 0.9, where 1 is the maximum; inconclusive means response in the unintended direction; inactive means score below 0.9.
Respond with a class label; see active, inactive

Q) What did this assay record as the result for `CCCCCCCCCCCO` ?
A) active

Q) Which outcome was entered for the compound `CCN(Cc1cccnc1)C(=O)c1cccc(Cl)c1[C@]1(C)C(=O)N(Cc2ccc(OC)cc2OC)c2ccc(Cl)cc21` in this test?
A) active

Q) What outcome does the record of this test show for `CCN(Cc1cccc(S(=O)(=O)O)c1)c1ccc(C(=C2C=CC(=[N+](CC)Cc3cccc(S(=O)(=O)O)c3)C=C2)c2ccccc2S(=O)(=O)[O-])cc1` ?
A) active

Q) Call for entry `O=C1O[C@H]([C@@H](O)CO)C(O)=C1O` :
A) inactive

Q) Tell me the assay call for `CC/C(=C(/CC)c1ccc(O)cc1)c1ccc(O)cc1` please.
A) inactive

Q) Entry `O=C1CCC(C2CCCCC2)CC1` : call = ?
A) active
